System: PC-3
test: Cytotoxicity against human PC-3 cells assessed as reduction in cell viability after 48 hrs
Assay type: functional, cell-based
measurement_conditions: PC-3, 48 h
assay_readout: IC50

Here is how some compounds turned out for IC50.
>  <compound>
O=[N+]([O-])c1ccc(CN2CCC(n3cc(CC(OCc4cc(-c5cccc(Br)c5)no4)c4ccc(Br)cc4)nn3)CC2)cc1 (configuration not stated)

>  <tgt>
PC-3

>  <meas_value>
> 25 µM

$$$$
>  <compound>
CC[C@H](CO)Nc1nc(NCc2ccccc2)c2ncn(C(C)C)c2n1 [SELICICLIB]

>  <tgt>
PC-3

>  <meas_value>
11 µM

$$$$
>  <compound>
O=[N+]([O-])c1ccc(CN2CCC(n3cc(CC(OCc4cc(-c5ccccc5Br)no4)c4ccc(Br)cc4)nn3)CC2)cc1 (configuration not stated)

>  <tgt>
PC-3

>  <meas_value>
> 25 µM

$$$$

INPUT: # returns recorded IC50 (system: PC-3) for O=[N+]([O-])c1ccc(CN2CCC(n3cc(CC(OCc4cc(-c5ccccc5)no4)c4ccc(Br)cc4)nn3)CC2)cc1 (configuration not stated)
OUTPUT: > 25 µM

INPUT: # returns recorded IC50 (system: PC-3) for N#Cc1cccc(-c2cc(COC(Cc3cn(C4CCN(Cc5ccc([N+](=O)[O-])cc5)CC4)nn3)c3ccc(Br)cc3)on2)c1 (configuration not stated)
OUTPUT: > 25 µM

INPUT: # returns recorded IC50 (system: PC-3) for N#Cc1ccc(-c2cc(COC(Cc3cn(C4CCN(Cc5ccc([N+](=O)[O-])cc5)CC4)nn3)c3ccc(Br)cc3)on2)cc1 (configuration not stated)
OUTPUT: 2 µM

INPUT: # returns recorded IC50 (system: PC-3) for O=[N+]([O-])c1ccc(CN2CCC(n3cc(CC(OCc4cc(-c5ccc(Br)cc5)no4)c4ccc(Br)cc4)nn3)CC2)cc1 (configuration not stated)
OUTPUT: > 25 µM
